Assay: Stat Signaling Pathway (AID 446);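 also: ME-180 cervical cancer cells given 40 pM IL-6 alongside compound; SIE-controlled beta-lactamase reporter measured as 460/530 nm FRET emission ratio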
Details: ME-180 (cervical carcinoma) SIE beta-lactamase reporter, IL-6 stimulated, 5 h; at 7.69 µM (top of the series) unless noted
Results filed as inconclusive are left out. Calls of active or inactive are those of the source. Calls follow the shape of the dose curve; as a rule, active = well fitted curve in either direction with a large enough effect (not every such curve was filed as active); inconclusive = small, poorly fitted or top-dose-only effect, or another doubt; inactive = flat fitted curve, though single readings scatter.
Output constraint: value belongs to Yes for active, No for inactive

Answered examples (3):
[[record]]
compound = "CC(C)CCC1(CCN)C(=O)NC(=O)NC1=O"
class = "No"

[[record]]
compound = "O=C(Oc1ccccc1)N1CCC[C@@]2(CCN(Cc3nccs3)C2)C1"
class = "No"

[[record]]
compound = "C1C[C@@H]2CN(CCCN3CCOCC3)[C@@H](C1)O2"
class = "No"


Would you kindly look at the next entry?
Ask | Each compound tested received a call. Report the one for O=P(O)(OP(=O)(O)c1ccccc1)c1ccccc1 (tested in a mixture with another compound) .
Reply | No
